- assayProcedure: Rat oral pharmacokinetics (plasma eicosapentaenoic acid after oral gavage)
- Type: in vivo
- measurementConditions: both sexes, rat; Sprague-Dawley rats, oral gavage 40 mg/kg in 0.5% carboxymethyl cellulose; analyte EPA in plasma; mean of 6 rats; read-out: Tmax
quantityName: Tmax
Put your answer as a value accompanied by its unit after it.

Report Tmax for CC/C=C\C/C=C\C/C=C\C/C=C\C/C=C\CCCC(=O)O [Piperazine di-eicosapentaenoate] please.
1 h
